# Tested on: MOLT-16
# method-description: selective drug sensitivity score (sDSS, relative to normal bone marrow) (sDSS (score)); higher = more potent and effective on the cell line relative to normal bone marrow cells;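 further: ALL cell lines in 384-well plates, five doses spanning 10,000-fold, each plate scaled between vehicle and 100 µmol/L benzalkonium chloride controls, sDSS an adapted area-under-curve metric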
# details: 72 h
Tick Yes if selective drug sensitivity score is 1 or greater. Tick No if selective drug sensitivity score is less than 1.

molecule="COC(=O)c1ccc2c(c1)[nH]c1ncnc(NCCCN3CCCCC3)c12 [UM729] (top concentration 10000 nM)" test_target=MOLT-16 qualitative_label=No
molecule="FC(F)c1nc2ccccc2n1-c1nc(N2CCOCC2)nc(N2CCOCC2)n1 [ZSTK474] (top concentration 10000 nM)" test_target=MOLT-16 qualitative_label=Yes
molecule="CN1CCN(c2cc(C(=O)Nc3ccc4c(c3)-c3c(c(C(N)=O)nn3-c3ccc(F)cc3)CC4)c(Cl)cn2)CC1 [PHA-408] (top concentration 10000 nM)" test_target=MOLT-16 qualitative_label=Yes
molecule="CO[C@@H](C)Cn1c(=O)n(C)c2cnc3ccc(-c4cncc(C(C)(C)O)c4)cc3c21 (top concentration 2500 nM)" test_target=MOLT-16 qualitative_label=Yes
molecule="CN(C)Cc1c(C(=O)NCCOc2ccc(C(=O)NO)cc2)oc2ccccc12 [Abexinostat] (top concentration 10000 nM)" test_target=MOLT-16 qualitative_label=Yes
molecule="COc1cc2nccc(Oc3ccc(NC(=O)NC4CC4)c(Cl)c3)c2cc1C(N)=O [Lenvatinib] (top concentration 2500 nM)" test_target=MOLT-16 qualitative_label=No

###

# Test system: LC4-1
# method-description: selective drug sensitivity score (sDSS, relative to normal bone marrow) (sDSS (score)); higher = more potent and effective on the cell line relative to normal bone marrow cells
# details: 72 h
measured-attribute: selective drug sensitivity score

compound="CC/C(=C(\\c1ccc(O)cc1)c1ccc(OCCN(C)C)cc1)c1ccccc1 [4-hydroxytamoxifen] (top concentration 10000 nM)" test_target=LC4-1 experimental_result=0.72
compound="NC(=O)Nc1cc(-c2cccc(F)c2)sc1C(=O)N[C@H]1CCCNC1 [AZD7762] (top concentration 1000 nM)" test_target=LC4-1 experimental_result=-0.5
compound="Cc1ccc(NC(=O)c2ccc(CN3CCN(C)CC3)cc2)cc1Nc1nccc(-c2cccnc2)n1 [Imatinib] (top concentration 10000 nM)" test_target=LC4-1 experimental_result=0.36

###

# Test system: RPMI-8402
# method-description: selective drug sensitivity score (sDSS, relative to normal bone marrow) (sDSS (score)); higher = more potent and effective on the cell line relative to normal bone marrow cells
# details: 72 h
measured-attribute: selective drug sensitivity score

compound="Nc1nc2[nH]cnc2c(=S)[nH]1 [Thioguanine] (top concentration 10000 nM)" test_target=RPMI-8402 experimental_result=14.9
compound="COc1ccc(-c2ccc3ncc4c(c3c2)n(-c2ccc(N3CCNCC3)c(C(F)(F)F)c2)c(=O)n4C)cn1 [NVP-BGT226] (top concentration 1000 nM)" test_target=RPMI-8402 experimental_result=4.42
compound="Cc1cccc(-c2[nH]c(CNc3ccccc3F)nc2-c2ccc3ncnn3c2)n1 [Vactosertib (TEW-7197)] (top concentration 2500 nM)" test_target=RPMI-8402 experimental_result=-0.5
compound="FC(F)(F)c1ccc(/C=C/c2nc(COc3ccc(CCCCn4ccnn4)cc3)co2)cc1 [Mubritinib] (top concentration 1000 nM)" test_target=RPMI-8402 experimental_result=22.5
compound="CCCCCOC(=O)Nc1nc(=O)n([C@@H]2O[C@H](C)[C@@H](O)[C@H]2O)cc1F [Capecitabine] (top concentration 10000 nM)" test_target=RPMI-8402 experimental_result=-0.06
compound="CCC(C)n1ncn(-c2ccc(N3CCN(c4ccc(OCC5COC(Cn6cncn6)(c6ccc(Cl)cc6Cl)O5)cc4)CC3)cc2)c1=O (centres undefined) [Itraconazole] (top concentration 5000 nM)" test_target=RPMI-8402 experimental_result=0.98
compound="O=c1[nH]c(=O)n([C@H]2C[C@H](O)[C@@H](CO)O2)cc1F [Floxuridine] (top concentration 10000 nM)" test_target=RPMI-8402 experimental_result=26
compound="Cn1ncnc1[C@H]1c2n[nH]c(=O)c3cc(F)cc(c23)N[C@@H]1c1ccc(F)cc1 [Talazoparib] (top concentration 1000 nM)" test_target=RPMI-8402 experimental_result=0.58
compound="COc1cc(OC2CCN(C)CC2)ccc1Nc1ncc2c(n1)n(C1CCCC1)c(=O)n2C [AZ3146] (top concentration 10000 nM)" test_target=RPMI-8402 experimental_result=1.94
